# test method notes: Compound was evaluated for binding affinity towards Alpha-glucosidase analyzed by the surface plasma resonance (SPR) method
Reported Ka values are given for each entry in this list.
Give the value in M⁻¹ but do not write M⁻¹ after it.

INSERT INTO assay_data (molecule_smiles, reading) VALUES
  ('O=C1c2c(Cl)c(Cl)c(Cl)c(Cl)c2C(=O)N1CCCCc1ccccc1', 22000),
  ('O=C1c2c(Cl)c(Cl)c(Cl)c(Cl)c2C(=O)N1CCCCCc1ccccc1', 15000);

Give the reported Ka for this molecule. OC[C@H]1NC[C@H](O)[C@@H](O)[C@@H]1O
210000

Please list Ka recorded for the molecule O=C1c2c(Cl)c(Cl)c(Cl)c(Cl)c2C(=O)N1Cc1ccccc1
15000

Complete the entry with Ka for O=C1c2c(Cl)c(Cl)c(Cl)c(Cl)c2C(=O)N1CCCc1ccccc1
33000

Note down Ka recorded for O=C1c2c(Cl)c(Cl)c(Cl)c(Cl)c2C(=O)N1CCc1ccccc1
25000

Hello, please tell me recorded Ka for this one: O=C1c2c(Cl)c(Cl)c(Cl)c(Cl)c2C(=O)N1c1ccccc1
140000

* * *

# test method notes: Compound was tested for the inhibition of Alpha-glucosidase
property name: pIC50
Give only the number. pIC50 is defined as minus log10 of concentration in molar units.

Write down pIC50 measured for item O=C1c2c(Cl)c(Cl)c(Cl)c(Cl)c2C(=O)N1CCCCc1ccccc1
5.70

* * *

# key: entry, value: pIC50
# test method notes: Inhibition of Alpha-glucosidase activity.
Scale: negative log10 of molar concentration, which is what pIC50 denotes.

INSERT INTO assay_data (molecule_smiles, property_name, reading) VALUES
  ('O=C1c2c(Cl)c(Cl)c(Cl)c(Cl)c2C(=O)N1CCCCCc1ccccc1', 'pIC50', 5.46),
  ('O=C1c2c(Cl)c(Cl)c(Cl)c(Cl)c2C(=O)N1CCCCCCc1ccccc1', 'pIC50', 5.15);

Consider the record given below.
Assign pIC50 to the following record: O=C1c2c(Cl)c(Cl)c(Cl)c(Cl)c2C(=O)N1c1ccccc1
5.59

* * *

# test method notes: Inhibition of Alpha-glucosidase activity.
pIC50: −log10 of the molar value.
Use TRUE when the recorded pIC50 is no lower than 5; use FALSE when it is lower.

These recorded examples may help you get a feel for the data.
INSERT INTO measurements (compound, qualitative_label) VALUES
  ('O=C1c2c(Cl)c(Cl)c(Cl)c(Cl)c2C(=O)N1CCc1ccccc1', 'TRUE'),
  ('Nc1ccc2c(c1)C(=O)N(c1ccccc1)C2=O', 'FALSE');

Here is the next item to consider.
Given O=C1c2ccccc2C(=O)N1CCCc1ccccc1 , state whether its pIC50 is at least 5.
FALSE

* * *

# test method notes: Inhibition of Alpha-glucosidase activity.
Label rule met when IC50 < 20 µM; otherwise rule not met.

Does OC[C@H]1NC[C@H](O)[C@@H](O)[C@@H]1O [DUVOGLUSTAT] have IC50 strictly under 20 µM?
rule not met

Threshold test, IC50 < 20 µM: O=C1c2cccc([N+](=O)[O-])c2C(=O)N1c1ccccc1
rule not met

* * *

# test method notes: Inhibition of Alpha-glucosidase activity.
property name: pIC50
Remember the convention: pIC50 equals -log10 of concentration in molar.

INSERT INTO results (molecule_smiles, property_name, reading) VALUES
  ('O=C1c2c(Cl)c(Cl)c(Cl)c(Cl)c2C(=O)N1Cc1ccccc1', 'pIC50', 4.96),
  ('O=C1c2ccc([N+](=O)[O-])cc2C(=O)N1c1ccccc1', 'pIC50', 4.63);

Would you kindly look at the next entry?
Supply measured pIC50 of O=C1c2c(Cl)c(Cl)c(Cl)c(Cl)c2C(=O)N1CCCc1ccccc1 in your reply.
5.35
